Sourced from PubChem BioAssay (NCI)

Recorded TGI values for a group of compounds are listed next.
Tested on: NCI-H23 lung
method_notes: NCI tumour cell line growth inhibition, 48 h
Write the value in µM as a bare number.

INSERT INTO results (compound, test_value) VALUES
  ('CC(=O)OCC(=O)[C@@]1(O)[C@H](C)C[C@H]2[C@@H]3C=C(C)C4=Cc5c(cnn5-c5ccc(F)cc5)C[C@]4(C)[C@H]3[C@@H](O)C[C@@]21C', 5.8);

Could you now look at the following compound, please?
Task: I'd like to know its TGI. The compound in question is CCCCCCCCCCCCCCCC(=O)NC1CCc2cc(O)c(O)c(O)c2-c2ccc(SC)c(=O)cc21 (centres undefined)
Output: 16.6
